Molecular target: T1, ADAMTS13 MDTCS(E225Q) (human, UniProt Q76LX8 78-682, E225Q, N-linked glycans at Asn142, Asn146, Asn552, Asn579, Asn614, Asn667 and an O-linked glycan on Ser399 (seen in the structure))
T1 construct: Drosophila BiP signal cleaved off to give the native N terminus Gly78; Vector pMT-BiP-PURO; also called MDTCS(E225Q) active-site mutant; not shown: 6xHis, C-terminal, kept
T1 sequence (looked up): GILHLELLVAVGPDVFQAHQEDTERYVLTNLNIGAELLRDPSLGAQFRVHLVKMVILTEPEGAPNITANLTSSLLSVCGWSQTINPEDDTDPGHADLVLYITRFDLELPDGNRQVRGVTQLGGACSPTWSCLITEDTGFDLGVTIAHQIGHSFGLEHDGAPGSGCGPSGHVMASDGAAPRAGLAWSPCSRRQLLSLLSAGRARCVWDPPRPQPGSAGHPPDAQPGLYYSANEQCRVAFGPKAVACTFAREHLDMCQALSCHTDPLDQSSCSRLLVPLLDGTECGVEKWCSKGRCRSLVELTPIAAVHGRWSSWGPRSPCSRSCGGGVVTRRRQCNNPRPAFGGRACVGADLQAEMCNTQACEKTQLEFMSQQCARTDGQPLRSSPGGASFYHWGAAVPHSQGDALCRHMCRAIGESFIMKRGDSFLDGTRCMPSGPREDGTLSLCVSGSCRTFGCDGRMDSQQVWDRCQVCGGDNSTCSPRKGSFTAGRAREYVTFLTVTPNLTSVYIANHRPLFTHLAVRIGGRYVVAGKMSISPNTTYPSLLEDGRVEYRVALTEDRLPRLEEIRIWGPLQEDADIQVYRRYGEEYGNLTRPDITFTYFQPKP
Experiment: ITC; 27 μM MDTCS(E225Q) in the cell, injections of 279 μM tag-free VWF73; 20 mM HEPES pH 7.5, 150 mM NaCl, 5 mM CaCl2; 25 °C; mean of four experiments
Details: both partners purified
assay endpoint: Kd (nM)
Number only, in nM; omit the unit.

query: Returns the measured Kd for the input binder. Input: VWF73 (tag-free VWF A2 domain fragment Asp1596-Arg1668) (domain or fragment, von Willebrand factor, human, A2 domain fragment, residues Asp1596-Arg1668 (73 amino acids); Vector pET-SUMO; also called tag-free VWF73; source: E. coli One Shot BL21 Star (DE3), purified as VWF96; His-SUMO tag removed with SUMO protease-1, passed over Ni2+ column; not shown: 6xHis-SUMO, N-terminal, cleaved) DREQAPNLVYMVTGNPASDEIKRLPGDIQVVPIGVGPNANVQELERIGWPNAPILIQDFETLPREAPDLVLQR
result: 450
